# assayProcedure: In vivo inhibition of CETP in cynomolgus-CETP transgenic mouse plasma at 1 mg/kg, po measured after 4 hrs
# Format: functional
Field: inhibition in vivo at 1 mg/kg. Provide a value for each of the compounds that follow.
The reply should be a number in %, with the unit left off.

### Prompt Provide measured inhibition in vivo at 1 mg/kg value, entry: COc1ncc(-c2c(C)cc(C(=O)NC3(C#N)CC3)cc2C)cc1-c1ccc(C(F)(F)F)cc1[C@@H]1CC[C@H]2[C@@H](c3cc(C(F)(F)F)cc(C(F)(F)F)c3)NC(=O)N12
### Response 67

### Prompt Provide measured inhibition in vivo at 1 mg/kg value, entry: COc1ccc(-c2ccc(C(=O)O)cc2C)cc1-c1ccc(C(F)(F)F)cc1CN1C(=O)N[C@H](c2cc(C(F)(F)F)cc(C(F)(F)F)c2)[C@@H]1C
### Response 87

### Prompt Provide measured inhibition in vivo at 1 mg/kg value, entry: COc1ccc(-c2ccc(C(=O)O)cc2C)cc1-c1ccc(C(F)(F)F)nc1CN1C(=O)N[C@H](c2cc(C(F)(F)F)cc(C(F)(F)F)c2)[C@@H]1C
### Response 89

### Prompt Provide measured inhibition in vivo at 1 mg/kg value, entry: COc1ncc(-c2ccc(C(=O)O)cc2C)cc1-c1ccc(C(F)(F)F)nc1CN1C(=O)N[C@H](c2cc(C(F)(F)F)cc(C(F)(F)F)c2)[C@@H]1C
### Response 87

Cited source: ChEMBL document CHEMBL4680288
